Item-by-item account of IC50
TGT: Serine hydroxymethyltransferase, mitochondrial (Homo sapiens)
Sequence (P34897 whole entry): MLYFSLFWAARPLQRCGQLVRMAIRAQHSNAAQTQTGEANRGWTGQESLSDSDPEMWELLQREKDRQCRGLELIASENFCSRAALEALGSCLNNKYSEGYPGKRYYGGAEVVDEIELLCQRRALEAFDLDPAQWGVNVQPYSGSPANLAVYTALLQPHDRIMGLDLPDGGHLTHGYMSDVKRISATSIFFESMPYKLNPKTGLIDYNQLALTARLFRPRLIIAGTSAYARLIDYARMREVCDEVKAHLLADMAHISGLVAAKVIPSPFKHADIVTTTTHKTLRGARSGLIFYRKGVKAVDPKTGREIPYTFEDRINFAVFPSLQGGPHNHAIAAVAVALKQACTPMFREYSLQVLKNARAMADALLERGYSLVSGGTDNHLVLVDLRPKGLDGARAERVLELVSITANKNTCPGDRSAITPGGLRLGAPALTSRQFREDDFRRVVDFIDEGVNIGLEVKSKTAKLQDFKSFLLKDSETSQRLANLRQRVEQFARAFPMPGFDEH
PROTOCOL SUMMARY: Inhibition of His-tagged human recombinant SHMT2 expressed in Escherichia coli BLR(DE3) assessed as reduction in NADPH level using L-serine, THF and NADP+ incubated for 5 mins by SHMT2-MTHFD coupled reaction based fluorescence assay
EXPERIMENTAL CONDITIONS: read-out: IC50

MOLECULE | IC50 (µM)
CC(C)Cn1cc(NC(=O)NCC2CCN(CCc3cccs3)CC2)c2ccccc2c1=O | 3.24
Cn1cc(NC(=O)N2CCCCC2)c2ccccc2c1=O | 9.33
Cc1ccc2oc(SCC(=O)Nc3cccc(N4CCCC4=O)c3)nc2n1 | 4.47
O=C1CCCC2=C1C(c1cccs1)N(S(=O)(=O)c1ccc(F)cc1)c1ccccc1N2 (configuration not stated) | 4.57
CC(C)Cn1cc(NC(=O)Nc2ccc(N3CCC(C)CC3)cc2)c2ccccc2c1=O | 8.91
CCCCN1CCS(=O)(=O)c2c(Cl)c(N3CCOCC3)nc(Oc3ccc(F)cc3)c21 | 4.57
CC(C)NC(=O)N1CCC2(CC1)Nc1cc(F)ccc1-n1cccc12 | 9.77
COC(=O)c1sc(=S)n(-c2ccc3c(c2)OCO3)c1N | 2.95
CC(C)Cn1cc(NC(=O)NC2CCCCC2)c2ccccc2c1=O | 1.74
CCCCC(=O)Nc1cc(F)c2nc(N3CCOCC3)ccc2c1 | 1.58
CCOC(=O)Cc1csc(NC(=O)Nc2cn(CC(C)C)c(=O)c3ccccc23)n1 | 3.31
COc1cc(OC)c(NC(=O)N2CCC3(CC2)Nc2cc(F)ccc2-n2cccc23)cc1Cl | 4.17
O=C(Cc1cccs1)Nc1cc(F)c2nc(N3CCOCC3)ccc2c1 | 4.79
CC(C)Cn1cc(NC(=O)N(Cc2ccco2)CC2CCCO2)c2ccccc2c1=O (configuration not stated) | 3.89
Cn1cc(NC(=O)NCC2COc3ccccc3O2)c2ccccc2c1=O (configuration not stated) | 4.68
CCc1ccc(NS(=O)(=O)c2ccc3c4c2CC(=O)N4CC(C)S3)cc1 (configuration not stated) | 2.14
O=C(CSc1nc2ncccc2o1)Nc1ccc(S(=O)(=O)Nc2ccc(F)cc2)cc1 | 2.75
CCC1c2ccc(C)n2CCN1C(=O)Nc1cc(OC)cc(OC)c1 (configuration not stated) | 7.94
COc1ccc(Cl)cc1N(C)C(=O)Nc1cn(C)c(=O)c2ccccc12 | 6.92
CCC1c2ccc(C)n2CCN1C(=O)Nc1cc(OC)ccc1OC (configuration not stated) | 6.31
CCc1nnc2c3ccccc3nc(Nc3ccc(OC)c(OC)c3)n12 | 12.3
Cc1c(C(=O)NCc2cccs2)oc2c1-c1[nH]ncc1CC2 | 7.94

Origin of measurements: ChEMBL document CHEMBL4418497
